Where do these numbers come from? They come from paper PMC6965034.

system_name: T1, GST-tagged PAK1 (Y270-H545) (human, UniProt Q13153-1 270-545)
T1 construct: human PAK1 C terminus with the entire kinase domain, residues Y270-H545; vector pGEX4T1; also called GST-PAK1; GST-PAK1 kinase domain; source: E. coli BL21, purified; not shown: GST, N-terminal, kept
assay_comment: ITC; 25 μM GST-PAK1 in the cell titrated with 100 μM sortilin-cd or peptide in 28 steps of 10 μl at 34°C; 100 mM NaCl, 50 mM Tris-HCl pH 7.5 (pH 7.4 in the results); one set of sites model
test_context: both partners purified
value_kind: Kd

# Kd of complete sortilin cytoplasmic domain (K779-E831), GST tag removed (domain or fragment, human, UniProt Q99523-1 779-831, looked up, human sortilin cytoplasmic domain K779-E831 (K1-E53 of the cytoplasmic domain); vector pGEX4T1; also called sortilin-cd; wt sortilin-cd; source: E. coli BL21, purified, GST tag removed by thrombin cleavage; not shown: GST, N-terminal, cleaved) KKYVCGGRFLVHRYSVLQQHAEANGVDGVDALDTASHTNKSGYHDDSDEDLLE = ~2000 nM
